Listed next: entries and their corresponding melting point.
measurement-type: melting point

- compound: "CC1(C)CC(=O)c2c(nc(Cc3ccc(O)c(F)c3)c3[nH]c4ccccc4c23)C1"
  measurement-type: "melting point"
  observed-result: "216 to 218 °C"
- compound: "CC1(C)CC(=O)c2c(nc(Cc3ccc(Cl)cc3)c3[nH]c4ccccc4c23)C1"
  measurement-type: "melting point"
  observed-result: "205 to 207 °C"
- compound: "O=C1CCCc2nc(Cc3ccc([N+](=O)[O-])cc3)c3[nH]c4ccccc4c3c21"
  measurement-type: "melting point"
  observed-result: "138 to 140 °C"
- compound: "CC1(C)Cc2nc(Cc3ccc(NC(N)=O)cc3)c3[nH]c4ccccc4c3c2C(O)C1 (stereo not shown)"
  measurement-type: "melting point"
  observed-result: "236 to 238 °C"

====

Target: human PDE5 (Homo sapiens, UniProt O76074)
Test: Inhibition of PDE5 activity (modified SPA test, human platelet lysate)
Conditions: PDE5-containing human platelet lysate, 0.5 μM cGMP substrate, 37° C.
Counter-ions that a name gives are not always drawn.
measurement-type: IC50

- compound: "COc1c(F)cc(Cc2nc3c(c4c2[nH]c2ccccc24)C(=O)CC(C)(C)C3)cc1F"
  observed-result: "0.191 nM"
- compound: "NC(=O)Nc1ccc(Cc2nc3c(c4c2[nH]c2ccccc24)C(=O)CCC3)cc1"
  observed-result: "41.7 nM"
- compound: "COc1ccc(Cc2nc3c(c4c2[nH]c2ccccc24)C(O)CCC3)cc1 (stereo not drawn)"
  observed-result: "13.2 nM"
- compound: "CC(=O)Nc1ccc(Cc2nc3c(c4c2[nH]c2ccccc24)C(=O)CC(C)(C)C3)cc1"
  observed-result: "16.6 nM"
- compound: "CC(=O)Nc1ccc(Cc2nc3c(c4c2[nH]c2ccccc24)C(=O)CCC3)cc1"
  observed-result: "67.6 nM"
- compound: "COc1ccc(Cc2nc3c(c4c2[nH]c2ccccc24)CCC(C)C3)cc1 (stereo not drawn)"
  observed-result: "3.39 nM"
- compound: "CC1(C)CC(=O)c2c(nc(Cc3ccc4c(c3)OCO4)c3[nH]c4ccccc4c23)C1 [Example 7, HCl salt]"
  observed-result: "3.89 nM"
- compound: "Cc1ccc(Cc2nc3c(c4c2[nH]c2ccccc24)C(=O)CC(C)(C)C3)cc1"
  observed-result: "2.95 nM"
- compound: "COc1ccc(Cc2nc3c(c4c2[nH]c2ccccc24)C(O)CC(C)(C)C3)cc1 (stereo not drawn)"
  observed-result: "5.37 nM"
- compound: "CC1(C)CC(=O)c2c(nc(Cc3ccc(F)c(F)c3)c3[nH]c4ccccc4c23)C1"
  observed-result: "14.1 nM"
- compound: "COc1ccc(Cc2nc3c(c4c2[nH]c2ccccc24)[C@H](O)CC(C)(C)C3)cc1F"
  observed-result: "31.6 nM"
- compound: "CC1(C)Cc2nc(Cc3ccc(F)c(F)c3)c3[nH]c4ccccc4c3c2C(O)C1 (stereo not drawn)"
  observed-result: "16.6 nM"

====

Molecular target: human PDE5 (Homo sapiens, UniProt O76074)
Assay: Inhibition of PDE5 activity (modified SPA test, human platelet lysate)
Conditions: PDE5-containing human platelet lysate, 0.5 μM cGMP substrate, 37° C.
pIC50: −log10 of the molar value.

- molecule: "CC1(C)Cc2nc(Cc3cc(F)cc(F)c3)c3[nH]c4ccccc4c3c2[C@H](O)C1"
  target-or-system: "human PDE5 (Homo sapiens, UniProt O76074)"
  pIC50: 6.40
- molecule: "CC1(C)Cc2nc(Cc3cc(F)cc(F)c3)c3[nH]c4ccccc4c3c2C(O)C1 (stereo not shown)"
  target-or-system: "human PDE5 (Homo sapiens, UniProt O76074)"
  pIC50: 8.10
- molecule: "COc1ccc(Cc2nc3c(c4c2[nH]c2ccccc24)C(=O)CC(C)(C)C3)c(F)c1F"
  target-or-system: "human PDE5 (Homo sapiens, UniProt O76074)"
  pIC50: 9.40
- molecule: "CC1(C)Cc2nc(Cc3cccc([N+](=O)[O-])c3)c3[nH]c4ccccc4c3c2C(O)C1 (stereo not shown)"
  target-or-system: "human PDE5 (Homo sapiens, UniProt O76074)"
  pIC50: 6.72
- molecule: "COc1ccc(Cc2nc3c(c4c2[nH]c2ccccc24)C(=O)CC(C)(C)C3)cc1Cl"
  target-or-system: "human PDE5 (Homo sapiens, UniProt O76074)"
  pIC50: 8.20
- molecule: "COc1ccc(Cc2nc3c(c4c2[nH]c2ccccc24)C(=O)CC(C)(C)C3)c(F)c1"
  target-or-system: "human PDE5 (Homo sapiens, UniProt O76074)"
  pIC50: 8.65
- molecule: "CCOc1ccc(Cc2nc3c(c4c2[nH]c2ccccc24)C(O)CC(C)(C)C3)cc1 (stereo not shown)"
  target-or-system: "human PDE5 (Homo sapiens, UniProt O76074)"
  pIC50: 7.60
- molecule: "COc1ccc(Cc2nc3c(c4c2[nH]c2ccccc24)C(O)CCC3)cc1F (stereo not shown)"
  target-or-system: "human PDE5 (Homo sapiens, UniProt O76074)"
  pIC50: 8.60
- molecule: "CC1(C)Cc2nc(Cc3ccc(F)cc3)c3[nH]c4ccccc4c3c2C(O)C1 (stereo not shown)"
  target-or-system: "human PDE5 (Homo sapiens, UniProt O76074)"
  pIC50: 7.54
- molecule: "COc1ccc(Cc2nc3c(c4c2[nH]c2ccccc24)CCCC3)cc1F"
  target-or-system: "human PDE5 (Homo sapiens, UniProt O76074)"
  pIC50: 8.40
- molecule: "CC1(C)Cc2nc(Cc3cccc(F)c3)c3[nH]c4ccccc4c3c2[C@@H](O)C1"
  target-or-system: "human PDE5 (Homo sapiens, UniProt O76074)"
  pIC50: 8.41
- molecule: "Nc1cccc(Cc2nc3c(c4c2[nH]c2ccccc24)C(O)CCC3)c1 (stereo not shown)"
  target-or-system: "human PDE5 (Homo sapiens, UniProt O76074)"
  pIC50: 7.31
- molecule: "COc1ccc(Cc2nc3c(c4c2[nH]c2ccccc24)C(=O)CCC3)cc1F"
  target-or-system: "human PDE5 (Homo sapiens, UniProt O76074)"
  pIC50: 8.90
- molecule: "CC1(C)Cc2nc(Cc3ccc(O)cc3)c3[nH]c4ccccc4c3c2C(O)C1 (stereo not shown)"
  target-or-system: "human PDE5 (Homo sapiens, UniProt O76074)"
  pIC50: 8.26
- molecule: "CC1(C)CC(=O)c2c(nc(Cc3ccc4c(c3)OCO4)c3[nH]c4ccccc4c23)C1 [Example 37]"
  target-or-system: "human PDE5 (Homo sapiens, UniProt O76074)"
  pIC50: 8.31
- molecule: "CC1(C)CC(=O)c2c(nc(Cc3ccc(N)cc3)c3[nH]c4ccccc4c23)C1"
  target-or-system: "human PDE5 (Homo sapiens, UniProt O76074)"
  pIC50: 7.93
